# TEST DESCRIPTION: Pharmacokinetics assessment in mice
# Format: in vivo, C57BL mice
# CONDITIONS USED: male, C57BL, plasma; mouse, PO (PEG400) 50 mg/kg
MEASURE NAME: AUC(0-t)
Be sure to follow the number with its unit.

Need AUC(0-t) of Cc1c(C(=O)C(=O)NC2(c3c[nH]nn3)CC(F)(F)C2)c(C)n(C)c1C(=O)Nc1ccc(F)c(C#N)c1 , thanks.
1850 ng·h/mL

###

# TEST DESCRIPTION: Cytotoxicity, ATPlite cell viability
# Format: cell-based
# CONDITIONS USED: human, mean value, HepG2 or HepG2.117 cells
MEASURE NAME: CC50 at 4 days

# MOLECULE, CC50 at 4 days
rows = [
    ("Cc1c(C(=O)C(=O)N[C@H](CC(F)(F)F)c2cn[nH]n2)c(C)n(C)c1C(=O)Nc1ccc(F)c(C#N)c1 (single isomer, unassigned)", "> 50 µM"),
    ("Cn1cc(C(=O)C(=O)N[C@]2(c3cn[nH]n3)CCC(F)(F)C2)cc1C(=O)Nc1ccc(F)c(C#N)c1 (single isomer, unassigned)", "14.1 µM"),
    ("Cc1c(C(=O)C(=O)NC2(c3cn[nH]n3)CC(F)(F)C2)c(F)c(C(=O)Nc2ccc(F)c(C#N)c2)n1C", "> 50 µM"),
]

Okay, next one:
Need CC50 at 4 days of Cc1c(C(=O)C(=O)N[C@@H](CC(F)(F)F)c2cn[nH]n2)cn(C)c1C(=O)Nc1ccc(F)c(Cl)c1 (single isomer, unassigned) , thanks.
> 50 µM

###

# TEST DESCRIPTION: Cytotoxicity, ATPlite cell viability
# Type: cell-based
# CONDITIONS USED: human, mean value, HepG2 or HepG2.117 cells
MEASURE NAME: CC50 at 4 days

Example compounds with recorded CC50 at 4 days:
# COMPOUND, CC50 at 4 days
records = [
    ("Cc1c(C(=O)C(=O)N[C@H](CC(C)(F)F)c2cn[nH]n2)cn(C)c1C(=O)Nc1ccc(F)c(C#N)c1 (single isomer, unassigned)", "> 50 µM"),
    ("Cc1c(C(=O)C(=O)N[C@@](C)(c2cn[nH]n2)C(F)F)cn(C)c1C(=O)Nc1ccc(F)c(C#N)c1 (single isomer, unassigned)", "> 50 µM"),
    ("Cn1cc(C(=O)C(=O)NC2(c3ccccc3)CC(F)(F)C2)cc1C(=O)Nc1ccc(F)c(C#N)c1", "1.1 µM"),
    ("Cc1c(C(=O)C(=O)NC2(c3cn[nH]n3)CC(F)(F)C2)cn(C)c1C(=O)Nc1ccc(F)c(C#N)c1F", "> 50 µM"),
    ("Cc1c(C(=O)C(=O)N[C@]2(c3cn[nH]n3)C[C@H](O)C2)cn(C)c1C(=O)Nc1ccc(F)c(C#N)c1 [Compound 58cis]", "> 50 µM"),
]

Need CC50 at 4 days of Cc1c(C(=O)C(=O)NC2(c3cn[nH]n3)CC(F)(F)C2)c(Cl)n(C)c1C(=O)Nc1ccc(F)c(Br)c1 , thanks.
6.6 µM

###

# TEST DESCRIPTION: Cytotoxicity, ATPlite cell viability
# Assay type: cell-based
# CONDITIONS USED: human, mean value, HepG2 or HepG2.117 cells
MEASURE NAME: CC50 at 4 days (µM)
Respond with the bare value in µM.

# MOLECULE, READOUT VALUE
records = [
    ("Cc1c(C(=O)C(=O)NC2(c3cn[nH]n3)CC(F)(F)C2)c(Cl)n(C)c1C(=O)Nc1ccc(F)c(Cl)c1", 5.8),
    ("Cn1cc(C(=O)C(=O)NC2(c3cn[nH]n3)CC(F)(F)C2)cc1C(=O)Nc1ccc(F)c(Cl)c1", 7.1),
    ("Cn1cc(C(=O)C(=O)N[C@@]2(c3cn[nH]n3)C[C@@H]2C(F)F)cc1C(=O)Nc1ccc(F)c(C#N)c1 (single isomer, unassigned)", 24.3),
    ("Cc1c(C(=O)C(=O)N[C@]2(c3cn[nH]n3)CCC(F)(F)C2)cn(C)c1C(=O)Nc1ccc(F)c(Cl)c1 (single isomer, unassigned)", 18.6),
    ("Cn1cc(C(=O)C(=O)NC(CC(F)(F)F)c2cn[nH]n2)cc1C(=O)Nc1ccc(F)c(C#N)c1 (centres unmarked) [Compound 20RS]", 12),
]

Okay, next one:
Need CC50 at 4 days of Cc1c(C(=O)C(=O)NC2(c3cn[nH]n3)CC(F)(F)C2)cn(C)c1C(=O)Nc1ccc(F)c(Cl)c1 , thanks.
26.8

###

# TEST DESCRIPTION: Cytotoxicity, ATPlite cell viability
# Assay type: cell-based
# CONDITIONS USED: human, mean value, HepG2 or HepG2.117 cells
# Experimental: Cytotoxicity of the compounds was tested using HepG2 or HepG2.117 cells, incubated for 4 days in the presence of compounds. The viability of the cells was assessed using the Perkin Elmer ATPlite Luminescence Assay System.”
MEASURE NAME: CC50 at 4 days

Example compounds with recorded CC50 at 4 days:
# COMPOUND, READOUT VALUE
data = [
    ("Cn1cc(C(=O)C(=O)NC2(c3cn[nH]n3)CC(F)(F)C2)c(F)c1C(=O)Nc1ccc(F)c(Cl)c1 [Compound 7]", "13.5 µM"),
    ("Cc1c(C(=O)C(=O)N[C@@H](CC(F)(F)F)c2cn[nH]n2)c(C)n(C)c1C(=O)Nc1ccc(F)c(C#N)c1 (single isomer, unassigned) [44*S]", "> 50 µM"),
    ("Cc1c(C(=O)C(=O)N[C@H](CC(F)(F)F)c2cn[nH]n2)cn(C)c1C(=O)Nc1ccc(F)c(Cl)c1 (single isomer, unassigned) [26*R]", "> 50 µM"),
    ("COc1c(C(=O)C(=O)NC2(c3cn[nH]n3)CC(F)(F)C2)cn(C)c1C(=O)Nc1ccc(F)c(C#N)c1 [Compound 32]", "31.7 µM"),
    ("Cc1c(C(=O)C(=O)NC2(c3cn[nH]n3)CC(F)(F)C2)cn(C)c1C(=O)Nc1ccnc(C(F)F)c1 [Compound 53]", "> 50 µM"),
]

Okay, next one:
Need CC50 at 4 days of Cn1cc(C(=O)C(=O)NC2(c3cn[nH]n3)CC(F)(F)C2)c(Cl)c1C(=O)Nc1ccc(F)c(C#N)c1 [Compound 8] , thanks.
> 50 µM

###

# TEST DESCRIPTION: Thermodynamic solubility assay
# Assay type: physicochemical
# CONDITIONS USED: organic solvent or mixture, thermodynamic from solid; thermodynamic solubility in PEG400
In this section we review reported solubility values for a set of molecules.

# COMPOUND, solubility
records = [
    ("Cc1c(C(=O)C(=O)NC2(c3c[nH]nn3)CC(F)(F)C2)c(C)n(C)c1C(=O)Nc1ccc(F)c(C#N)c1", "> 33.9 mg/mL"),
]

Okay, next one:
Need solubility of Cc1c(C(=O)C(=O)NC2(c3cn[nH]n3)CC(F)(F)C2)cn(C)c1C(=O)Nc1ccc(F)c(Cl)c1 , thanks.
> 36.4 mg/mL

###

# TEST DESCRIPTION: Cytotoxicity, ATPlite cell viability
# Format: cell-based
# CONDITIONS USED: human, mean value, HepG2 or HepG2.117 cells
MEASURE NAME: CC50 at 4 days

Example compounds with recorded CC50 at 4 days:
# COMPOUND, READOUT VALUE
data = [
    ("Cc1cc(NC(=O)c2cc(C(=O)C(=O)NCc3cn[nH]n3)cn2C)ccc1F [Ref. 59, reference compound]", "> 50 µM"),
    ("Cc1c(C(=O)C(=O)N[C@@H](CC(C)(F)F)c2cn[nH]n2)cn(C)c1C(=O)Nc1ccc(F)c(C#N)c1 (single isomer, unassigned) [49*S]", "> 50 µM"),
    ("Cn1cc(C(=O)C(=O)NC2(c3c[nH]cn3)CC(F)(F)C2)cc1C(=O)Nc1ccc(F)c(C#N)c1 [Compound 56]", "20 µM"),
    ("Cc1c(C(=O)C(=O)NC2(c3cn[nH]n3)CC(F)(F)C2)c(Br)n(C)c1C(=O)Nc1ccc(F)c(Cl)c1 [Compound 41]", "7.2 µM"),
    ("Cn1cc(C(=O)C(=O)NC2(c3cn[nH]n3)CC(F)(F)C2)c(C2CC2)c1C(=O)Nc1ccc(F)c(C#N)c1 [Compound 38]", "> 50 µM"),
]

Need CC50 at 4 days of Cc1c(C(=O)C(=O)NC(CC(F)(F)F)c2cn[nH]n2)c(C)n(C)c1C(=O)Nc1ccc(F)c(C#N)c1 (stereo not shown) [Compound 44RS] , thanks.
> 50 µM

Need CC50 at 4 days of Cc1c(C(=O)C(=O)N[C@]2(c3cn[nH]n3)C[C@H](F)C2)cn(C)c1C(=O)Nc1ccc(F)c(C#N)c1 [Compound 57cis] , thanks.
> 50 µM
